// data source = patent EP0545912B1

Would you mind telling me the reported ID50 of each entry?
# Tested on: All receptor (pressor response to angiotensin II)
# Test Summary: Evaluation of AII receptor blocking activity by inhibition of pressor response to angiotensin II
# Assay type: in vivo
# Experimental Context: dose inhibiting pressor response to intravenous angiotensin II (50 ng/kg) by fifty percent; anesthetized male Wister-Imamichi rats; test compound i.v., angiotensin II injected two minutes later; 2 min
# Experimental: Evaluation of All receptor blocking activity by Inhibition of pressor response to angiotensin II The biological activity of each compound was assessed by determining the dose required to inhibit the pressor response to intravenous angiotensin II by fifty percent (ID50) in rats. […]

Examples with answers:
[[record]]
compound = "CCCc1nc(CO)c(C(=O)O)n1Cc1ccc(-c2ccccc2-c2nnn[nH]2)cc1"
endpoint_result = "0.0062 mg/kg, i.v."

[[record]]
compound = "CCCCc1nc(C(O)CC)c(C(N)=O)n1Cc1ccc(-c2ccccc2C(=O)O)cc1 (stereo not shown)"
endpoint_result = "0.18 mg/kg, i.v."

[[record]]
compound = "CCCCc1nc(C(C)O)c(C(N)=O)n1Cc1ccc(-c2ccccc2C(=O)O)cc1 (stereo not shown)"
endpoint_result = "0.19 mg/kg, i.v."

[[record]]
compound = "CCCCc1nc(CCl)c(Cl)n1Cc1ccc(-c2ccccc2C(=O)O)cc1 [compound A, reference compound]"
endpoint_result = "3.3 mg/kg, i.v."

[[record]]
compound = "CCCCc1nc(C(C)O)c(C(=O)O)n1Cc1ccc(-c2ccccc2-c2nnn[nH]2)cc1 (stereo not shown)"
endpoint_result = "0.0082 mg/kg, i.v."


List reported ID50 for each of these compounds:
1. CCCCc1nc(CO)c(C(=O)NCC(=O)O)n1Cc1ccc(-c2ccccc2C(=O)O)cc1
2. CCCc1nc(C(O)C(C)C)c(C(N)=O)n1Cc1ccc(-c2ccccc2-c2nnn[nH]2)cc1 (stereo not shown)

0.23 mg/kg, i.v.
0.022 mg/kg, i.v.

Look up ID50 for the entries below, preserving their order.
1. CCCCc1nc(CO)c(C(=O)O)n1Cc1ccc(-c2ccccc2C(=O)O)cc1
2. CCCCc1nc(C(O)C(C)(C)C)c(C(N)=O)n1Cc1ccc(-c2ccccc2-c2nnn[nH]2)cc1 (stereo not shown)

1: 0.22 mg/kg, i.v.; 2: 0.11 mg/kg, i.v.

Below are some compounds; for each one, tell me its ID50.
1. CCCCc1nc(C(O)C(C)C)c(C(N)=O)n1Cc1ccc(-c2ccccc2C(=O)O)cc1 (stereo not shown)
2. CCCc1nc(C(O)C(C)(C)C)c(C(N)=O)n1Cc1ccc(-c2ccccc2-c2nnn[nH]2)cc1 (stereo not shown)
3. CCCc1nc(C(O)C(C)(C)C)c(C(N)=O)n1Cc1ccc(-c2ccccc2C(=O)O)cc1 (stereo not shown)
4. CCCCc1nc(C(O)C(C)(C)C)c(C(N)=O)n1Cc1ccc(-c2ccccc2C(=O)O)cc1 (stereo not shown)
5. CCCc1nc(C(C)O)c(C(=O)O)n1Cc1ccc(-c2ccccc2-c2nnn[nH]2)cc1 (stereo not shown)

["0.064 mg/kg, i.v.", "0.036 mg/kg, i.v.", "0.134 mg/kg, i.v.", "0.066 mg/kg, i.v.", "0.0063 mg/kg, i.v."]

# batch size: 2; output ID50 per entry
1. CCCCc1nc(CO)c(C(=O)O)n1Cc1ccc(-c2ccccc2-c2nnn[nH]2)cc1
2. CCCCc1nc(C(C)O)c(C(=O)O)n1Cc1ccc(-c2ccccc2C(=O)O)cc1 (stereo not shown)

1. 0.010 mg/kg, i.v.
2. 0.25 mg/kg, i.v.
